Recorded A1, EC50 values as a ratio of that of NECA, one value per entry.
experimental.system: human adenosine 1 receptor (Homo sapiens)
Sequence (P30542 whole entry): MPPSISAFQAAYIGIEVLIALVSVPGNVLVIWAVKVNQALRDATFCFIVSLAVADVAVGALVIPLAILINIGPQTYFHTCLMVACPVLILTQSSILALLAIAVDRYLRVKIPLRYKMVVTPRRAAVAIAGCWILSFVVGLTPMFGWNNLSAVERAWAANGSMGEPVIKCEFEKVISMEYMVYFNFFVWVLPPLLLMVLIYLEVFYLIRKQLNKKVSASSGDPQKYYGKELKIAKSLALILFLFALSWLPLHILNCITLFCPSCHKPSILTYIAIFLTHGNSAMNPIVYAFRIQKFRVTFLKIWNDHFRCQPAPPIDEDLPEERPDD
assay.text: Agonist activity at adenosine 1 receptor, CHO cells with CRE-SPAP reporter (forskolin-enhanced cAMP)
Format: cell-based
run.parameters: ratio of EC50 to that of NECA, CHO cells transfected with human receptor, SPAP readout

These solved cases illustrate the format of a correct answer.
[
  {
    "compound": "Cn1cnc(CCNc2nc(NCC(c3ccccc3)c3ccccc3)c3ncn(C4OC(Cn5nccn5)C(O)C4O)c3n2)c1 (stereo not drawn)",
    "measured.value": 3038.8
  },
  {
    "compound": "O=CO.O[C@@H]1[C@H](O)[C@@H](Cn2nccn2)O[C@H]1n1cnc2c(NCC(c3ccccc3)c3ccccc3)nc(NCCN3CCOCC3)nc21",
    "measured.value": 1014
  },
  {
    "compound": "Cn1cnc(CCNc2nc(NCC(c3ccccc3)c3ccccc3)c3ncn([C@@H]4O[C@H](CN5C(=O)CNC5=O)[C@@H](O)[C@H]4O)c3n2)c1.O=CO.O=CO",
    "measured.value": 8479
  }
]

Using the record for OC1C(Cn2cncn2)OC(n2cnc3c(NCC(c4ccccc4)c4ccccc4)nc(NC4CCNC4)nc32)C1O (stereo not drawn) , report its A1, EC50 values as a ratio of that of NECA. >8479

====

experimental.system: human adenosine 3 receptor (Homo sapiens, UniProt P0DMS8)
Sequence (P0DMS8 1-318): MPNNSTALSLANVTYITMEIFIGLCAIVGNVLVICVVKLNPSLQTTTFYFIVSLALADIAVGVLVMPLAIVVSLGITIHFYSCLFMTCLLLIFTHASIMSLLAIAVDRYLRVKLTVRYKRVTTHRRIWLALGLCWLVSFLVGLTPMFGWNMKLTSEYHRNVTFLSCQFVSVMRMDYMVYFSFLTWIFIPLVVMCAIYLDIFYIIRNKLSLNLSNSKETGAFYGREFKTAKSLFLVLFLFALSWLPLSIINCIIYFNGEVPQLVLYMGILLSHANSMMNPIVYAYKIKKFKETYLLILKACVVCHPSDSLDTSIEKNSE
assay.text: Agonist activity at adenosine 3 receptor, CHO cells with CRE-SPAP reporter (forskolin-enhanced cAMP)
Format: cell-based
run.parameters: ratio of EC50 to that of NECA, CHO cells transfected with human receptor, SPAP readout
result.type: A3, EC50 values as a ratio of that of NECA

[
  {
    "compound": "OC1CCCC1Nc1nc(NCC(c2ccccc2)c2ccccc2)c2ncn(C3OC(Cn4cncn4)C(O)C3O)c2n1 (stereo not drawn)",
    "measured.value": ">274"
  },
  {
    "compound": "N[C@H]1CC[C@H](Nc2nc(NCC(c3ccccc3)c3ccccc3)c3ncn([C@@H]4O[C@H](Cn5nccn5)[C@@H](O)[C@H]4O)c3n2)CC1.O=CO",
    "measured.value": ">656"
  }
]

# context switch: different compound, same A3, EC50 values as a ratio of that of NECA
Using the record for O=CO.O[C@@H]1[C@H](O)[C@@H](Cn2nccn2)O[C@H]1n1cnc2c(NCC(c3ccccc3)c3ccccc3)nc(NCCN3CCOCC3)nc21 , report its A3, EC50 values as a ratio of that of NECA. >174

====

experimental.system: human adenosine 2a receptor (Homo sapiens)
Sequence (P29274 whole entry): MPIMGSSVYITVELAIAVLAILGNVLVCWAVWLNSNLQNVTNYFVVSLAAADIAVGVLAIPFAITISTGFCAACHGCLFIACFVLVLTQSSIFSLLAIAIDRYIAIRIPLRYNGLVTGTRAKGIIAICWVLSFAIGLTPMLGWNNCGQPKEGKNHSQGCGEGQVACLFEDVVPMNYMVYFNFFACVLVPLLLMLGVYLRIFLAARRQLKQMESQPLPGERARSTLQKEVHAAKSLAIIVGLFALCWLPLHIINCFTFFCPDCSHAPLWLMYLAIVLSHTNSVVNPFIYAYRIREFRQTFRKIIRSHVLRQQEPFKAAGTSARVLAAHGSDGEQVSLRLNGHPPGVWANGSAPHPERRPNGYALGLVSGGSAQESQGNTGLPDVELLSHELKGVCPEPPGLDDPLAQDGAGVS
assay.text: Agonist activity at adenosine 2a receptor, CHO cells with CRE-SPAP reporter (basal cAMP)
Type: cell-based
run.parameters: ratio of EC50 to that of NECA, CHO cells transfected with human receptor, SPAP readout
result.type: A2a, EC50 values as a ratio of that of NECA
// return just the number, without any unit appended

[
  {
    "compound": "OC1CCCC1Nc1nc(NCC(c2ccccc2)c2ccccc2)c2ncn(C3OC(Cn4cncn4)C(O)C3O)c2n1 (stereo not drawn)",
    "experimental.system": "human adenosine 2a receptor (Homo sapiens)",
    "measured.value": 23.7
  }
]

Using the record for OC1C(Cn2cncn2)OC(n2cnc3c(NCC(c4ccccc4)c4ccccc4)nc(NC4CCNC4)nc32)C1O (stereo not drawn) , report its A2a, EC50 values as a ratio of that of NECA. 14.4

Using the record for N[C@H]1CC[C@H](Nc2nc(NCC(c3ccccc3)c3ccccc3)c3ncn([C@@H]4O[C@H](Cn5nccn5)[C@@H](O)[C@H]4O)c3n2)CC1.O=CO , report its A2a, EC50 values as a ratio of that of NECA. 17.1
